# Test system: Escherichia coli
# method_summary: ≥ marks a high value that may be exact or a test limit, other limits are often not marked, values filed in µg/mL are converted to µM
metric_name: MIC (µM)
Response body: numeric value in µM, unit text excluded.

Problem: What does the record list as MIC for CSCC[C@H](NC(=O)[C@@H](N)[C@@H](C)O)C(=O)N[C@@H](CO)C(=O)N[C@@H](CC(C)C)C(=O)N[C@@H](CCCN=C(N)N)C(=O)N[C@@H](Cc1ccccc1)C(=O)N[C@@H](Cc1c[nH]c2ccccc12)C(=O)N[C@@H](CCCN=C(N)N)C(=O)N[C@@H](Cc1c[nH]c2ccccc12)C(=O)N[C@@H](CCCCN)C(=O)N[C@H](C(=O)N[C@@H](CCCN=C(N)N)C(=O)O)C(C)C ?
Result: 76.8

All values here come from DBAASP.
